These entries and their values trace back to patent US20140066410A1.

Molecular target: CBP BRD (Homo sapiens)
Sequence (Q92793 1085-1192 limits assumed): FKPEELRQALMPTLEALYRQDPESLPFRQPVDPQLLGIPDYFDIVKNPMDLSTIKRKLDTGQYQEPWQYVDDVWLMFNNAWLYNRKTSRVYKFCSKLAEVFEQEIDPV
Assay: Bromodomain binding affinity (tryptophan fluorescence binding assay)
Conditions: Table 4; read-out: CBP (μM), bromodomain binding
REPORTED METRIC: Kd (µM)
Give the value in µM but do not write µM after it.

Fill in Kd for record Cc1cc(/N=N/c2ccc(S(=O)(=O)Nc3ccccn3)cc2)c(N)cc1O [MS0129436] 14

Fill in Kd for record Cc1cc(/C=C/c2ccc(S(=O)(=O)Nc3ccccn3)cc2)cc(C)c1O [CM0000255] 33

Fill in Kd for record O=C(O)c1cc(/N=N/c2ccc(S(=O)(=O)Nc3ccccn3)cc2)ccc1O [Sulfasalazine (MS0123028), Sulfasalazine, reference compound] 82
